Hello, the source for this data is patent US5789434A, in case you need it.

// reported IC50 for each item listed
Biological target: MMP-9 (Homo sapiens)
Construct: from tissue; host or cells: human polymorphonuclear leukocytes (PMN) from whole blood (New York Blood Center), PMA-stimulated supernatant
Sequence (P14780 107-707 limits assumed): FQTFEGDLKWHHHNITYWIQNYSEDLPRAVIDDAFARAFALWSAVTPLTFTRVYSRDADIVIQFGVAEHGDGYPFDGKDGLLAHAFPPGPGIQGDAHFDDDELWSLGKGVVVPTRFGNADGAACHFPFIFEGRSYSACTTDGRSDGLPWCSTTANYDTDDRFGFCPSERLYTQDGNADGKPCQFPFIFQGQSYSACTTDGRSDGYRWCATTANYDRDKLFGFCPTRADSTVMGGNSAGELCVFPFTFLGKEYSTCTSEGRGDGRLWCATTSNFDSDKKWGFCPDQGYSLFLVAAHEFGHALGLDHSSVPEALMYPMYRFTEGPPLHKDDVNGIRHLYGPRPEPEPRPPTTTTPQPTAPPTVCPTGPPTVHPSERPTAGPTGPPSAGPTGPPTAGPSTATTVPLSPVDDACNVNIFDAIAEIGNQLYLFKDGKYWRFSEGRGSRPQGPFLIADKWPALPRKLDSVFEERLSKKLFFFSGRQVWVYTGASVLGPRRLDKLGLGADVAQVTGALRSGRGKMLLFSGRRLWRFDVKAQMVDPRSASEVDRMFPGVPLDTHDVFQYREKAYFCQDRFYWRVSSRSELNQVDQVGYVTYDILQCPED
Assay: Thiopeptilide MMP-9 Inhibition Assay
Assay type: biochemical
Settings: pH 6.5; x (n) = average of n determinations; read-out: MMP-9: Thiopep. IC50

Molecule | IC50
COc1ccc(-c2ccc(C(=O)CC(CC(C)C)C(=O)O)cc2)cc1 (centres unmarked) | 1200 nM
C[C@@H](C(=O)O)[C@@H](C)C(=O)c1ccc(-c2ccc(Cl)cc2)cc1 (relative stereo) | 7000 nM
O=C(CC(CCCc1ccccc1)C(=O)O)c1ccc(-c2ccc(OCCO)cc2)cc1 (centres unmarked) | 700 nM
CC(C)CC(CC(=O)c1ccc(-c2ccc(C#N)cc2)cc1)C(=O)O (centres unmarked) | 4000 nM
O=C(CC(CSc1cccc(Cl)c1)C(=O)O)c1ccc(-c2ccc(Cl)cc2)cc1 (centres unmarked) | 1300 nM
O=C(O)CC1(CC(=O)c2ccc(-c3ccc(Cl)cc3)cc2)CCCC1 | 600 nM
O=C(O)CC1(CC(=O)c2ccc(-c3ccc(Cl)cc3)cc2)CCCCC1 | 1500 nM
O=C(CC(CSC(=O)c1ccccc1)C(=O)O)c1ccc(-c2ccc(Cl)cc2)cc1 (centres unmarked) | 500 nM
O=C(CC(SCc1ccccc1)C(=O)O)c1ccc(-c2ccc(Cl)cc2)cc1 (centres unmarked) | 2900 nM
O=C(O)[C@@H]1[C@@H](C(=O)c2ccc(-c3ccc(Cl)cc3)cc2)CC[C@H]1Sc1ccc(F)cc1 (relative stereo) | 62 nM
CC(=O)Nc1ccc(SCC(CC(=O)c2ccc(-c3ccc(Cl)cc3)cc2)C(=O)O)cc1 (centres unmarked) | 580 nM
CCc1ccccc1SCC(CC(=O)c1ccc(-c2ccc(Cl)cc2)cc1)C(=O)O (centres unmarked) | 950 nM
Cc1ccccc1S[C@@H]1CC[C@H](C(=O)c2ccc(-c3ccc(Cl)cc3)cc2)[C@H]1C(=O)O (relative stereo) | 42 nM
O=C(CC(CCCc1ccccc1)C(=O)O)c1ccc(-c2cccs2)cc1 (centres unmarked) | 800 nM
CC(=O)Oc1ccc(-c2ccc(C(=O)CC(CCCc3ccccc3)C(=O)O)cc2)cc1 (centres unmarked) | 780 nM
Cc1ccc(SCC(CC(=O)c2ccc(-c3ccc(Cl)cc3)cc2)C(=O)O)cc1 (centres unmarked) | 280 nM
N#CCc1ccc(-c2ccc(C(=O)CC(CCCc3ccccc3)C(=O)O)cc2)cc1 (centres unmarked) | 800 nM
